Biological target: Human PDE10 (Homo sapiens, UniProt Q9Y233)
Sequence (Q9Y233 whole entry): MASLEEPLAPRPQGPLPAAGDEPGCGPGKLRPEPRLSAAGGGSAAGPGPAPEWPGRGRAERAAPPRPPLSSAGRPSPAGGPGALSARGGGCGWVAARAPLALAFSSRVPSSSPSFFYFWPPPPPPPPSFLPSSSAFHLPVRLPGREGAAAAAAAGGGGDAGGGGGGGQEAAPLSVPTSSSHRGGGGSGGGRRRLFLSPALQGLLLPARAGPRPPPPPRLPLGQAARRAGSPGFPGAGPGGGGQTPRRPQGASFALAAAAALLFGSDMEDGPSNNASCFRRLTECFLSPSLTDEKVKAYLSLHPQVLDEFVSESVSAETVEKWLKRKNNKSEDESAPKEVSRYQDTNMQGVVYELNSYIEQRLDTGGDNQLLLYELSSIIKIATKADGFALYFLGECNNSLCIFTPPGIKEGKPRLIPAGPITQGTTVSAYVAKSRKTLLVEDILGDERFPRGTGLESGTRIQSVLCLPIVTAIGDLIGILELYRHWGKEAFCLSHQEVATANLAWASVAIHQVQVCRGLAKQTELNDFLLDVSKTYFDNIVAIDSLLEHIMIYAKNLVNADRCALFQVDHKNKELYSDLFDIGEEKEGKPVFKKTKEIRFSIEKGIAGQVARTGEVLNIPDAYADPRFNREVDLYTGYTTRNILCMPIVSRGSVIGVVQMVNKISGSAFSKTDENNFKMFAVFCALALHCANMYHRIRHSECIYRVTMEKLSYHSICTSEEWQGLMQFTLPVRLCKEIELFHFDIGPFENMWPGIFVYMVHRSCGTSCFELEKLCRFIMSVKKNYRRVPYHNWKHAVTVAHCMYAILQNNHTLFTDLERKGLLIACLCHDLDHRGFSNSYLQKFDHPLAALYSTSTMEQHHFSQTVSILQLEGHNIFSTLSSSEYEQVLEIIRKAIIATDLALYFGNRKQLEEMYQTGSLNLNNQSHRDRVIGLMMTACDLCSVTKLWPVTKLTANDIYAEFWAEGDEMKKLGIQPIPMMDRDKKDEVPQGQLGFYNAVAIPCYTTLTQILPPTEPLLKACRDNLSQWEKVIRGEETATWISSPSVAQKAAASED
pIC50: −log10 of the molar value.
Quick reference: pIC50 of the listed items.

Examples with answers:
[
  {
    "Molecule": "Cn1ncc(-c2nc(C(F)F)c(C3CC3)s2)c1C(=O)NC1CCn2nc(-c3ccc(F)cc3)nc2C1 (stereo not shown)",
    "pIC50": "7.00 to 8.30"
  },
  {
    "Molecule": "C[C@H]1CCCN1c1nc2cc(NC(=O)c3c(-c4nc(C(F)F)cs4)cnn3C)ccn2n1",
    "pIC50": "> 8.30"
  },
  {
    "Molecule": "Cn1ncc(-c2nc(C#N)cs2)c1C(=O)NC1CCn2nc(-c3ccc(F)cc3)nc2C1 (stereo not shown)",
    "pIC50": "7.00 to 8.30"
  }
]

Pending molecule:
Q: Test system Human PDE10 (Homo sapiens, UniProt Q9Y233); read-out pIC50; what value for Cn1ncc(-c2nc(C(F)(F)F)cs2)c1C(=O)NC1CCn2nc(-c3ccccc3)nc2C1 (stereo not shown) ?
A: 7.00 to 8.30

----------
Target: UniProt:Q9Y233
Listing: IC50 of selected molecules

[
  {
    "Molecule": "CC(=O)c1sc(C)nc1-c1cnn(C)c1C(=O)NC1CCn2nc(-c3ccccc3)nc2C1 (centres unmarked) [Example 5.30]",
    "Test Result": "5 to 100 nM"
  },
  {
    "Molecule": "COC[C@H]1CCCN1c1nc2n(n1)CCC(NC(=O)c1c(-c3nc(C(F)F)cs3)cnn1C)C2 (some centres unmarked) [Example 5.16]",
    "Test Result": "5 to 100 nM"
  },
  {
    "Molecule": "Cc1ccnc(-c2cnn(C)c2C(=O)NC2CCn3cc(-c4ccccc4)nc3C2)n1 (centres unmarked) [Example 2.16]",
    "Test Result": "5 to 100 nM"
  },
  {
    "Molecule": "C[C@H]1CCCN1c1nc2cc(NC(=O)c3c(-c4nc(C(F)(F)F)cs4)cnn3C)ccn2n1 [Example 4.10]",
    "Test Result": "< 5 nM"
  },
  {
    "Molecule": "Cc1cccc(-c2cnn(C)c2C(=O)NC2CCn3nc(N4CCCC4)nc3C2)n1 (centres unmarked) [Example 5.47]",
    "Test Result": "5 to 100 nM"
  },
  {
    "Molecule": "Cc1ccc(-c2cnn(C)c2C(=O)NC2CCn3cc(-c4ccccc4)nc3C2)nc1 (centres unmarked) [Example 2.21]",
    "Test Result": "5 to 100 nM"
  },
  {
    "Molecule": "Cn1ncc(-c2nc(C(F)F)c(Cl)s2)c1C(=O)NC1CCn2nc(-c3cccc(F)c3)nc2C1 (centres unmarked) [Example 5.37]",
    "Test Result": "5 to 100 nM"
  },
  {
    "Molecule": "Cn1ncc(-c2nc(C(F)F)c(Cl)s2)c1C(=O)Nc1ccn2nc(-c3ccccc3)nc2c1 [Example 3.20]",
    "Test Result": "< 5 nM"
  },
  {
    "Molecule": "Cn1ncc(-c2cscn2)c1C(=O)NC1CCn2cc(-c3ccccc3)nc2C1 (centres unmarked) [Example 2.25]",
    "Test Result": "5 to 100 nM"
  },
  {
    "Molecule": "Cc1nc(-c2cnn(C)c2C(=O)NC2CCn3nc(-c4ccccc4)nc3C2)c(Br)s1 (centres unmarked) [Example 5.13]",
    "Test Result": "5 to 100 nM"
  }
]

Q: Kindly state the measured IC50 obtained for Cc1cccnc1-c1cnn(C)c1C(=O)Nc1cc2nc(-c3ccccc3)nn2cc1F [Example 3.1] with UniProt:Q9Y233.
A: < 5 nM

Q: Lab request: please report IC50 under test system UniProt:Q9Y233 for Cn1ncc(-c2ncccc2C#N)c1C(=O)NC1CCn2nc(-c3ccccc3)nc2C1 (centres unmarked) [Example 5.27]
A: 5 to 100 nM

Q: // map Cc1csc(-c2cnn(C)c2C(=O)NC2CCn3nc(-c4ccccc4)nc3C2)n1 (centres unmarked) [Example 5.18] to recorded IC50 (system: UniProt:Q9Y233)
A: 5 to 100 nM

All figures here come from patent US8980888B2.
